Data origin, for the record: PubChem BioAssay

Assay: plasmodial surface anion channel blockers, osmotic lysis – cell-based, P. falciparum Indochina, OD700, 18 h, primary screen (AID 1157)
Conditions: P. falciparum Indochina infected erythrocytes, osmotic lysis OD700, 18 h; higher = more signal, called active from +8 up or from −8 down
Parameter: z-score

> print(dat)
                                   molecule  parameter  reported
1  CCCNC(=O)[C@@]1(C)c2ccccc2C(=O)N(Cc2ccc(OC(F)(F)F)cc2)[C@H]1c1ccc(CO)cc1    z-score     0.208
2  O=C1C2C=CC(C(O)C3CC=CCC3)N(n3cnnc3)C2C(=O)N1Cc1ccccc1 (centres undefined)    z-score     0.388
3  COC(=O)[C@@]1(Cc2ccc(OC)cc2)[C@H]2c3cc(C(=O)N(C)C)n(CCSCCO)c3C[C@H]2CN1C(=O)c1ccccc1    z-score     0.641
4  CCCCN1CC=CC23O[C@@H]4/C=C\CCCOC(=O)C4[C@H]2C(=O)N(C(C)CO)[C@@H]3C1=O (some centres undefined)    z-score     0.405

----------
Molecular target: Focal adhesion kinase 1 (Homo sapiens) (UniProt Q05397)
Sequence (Q05397 whole entry, looked up): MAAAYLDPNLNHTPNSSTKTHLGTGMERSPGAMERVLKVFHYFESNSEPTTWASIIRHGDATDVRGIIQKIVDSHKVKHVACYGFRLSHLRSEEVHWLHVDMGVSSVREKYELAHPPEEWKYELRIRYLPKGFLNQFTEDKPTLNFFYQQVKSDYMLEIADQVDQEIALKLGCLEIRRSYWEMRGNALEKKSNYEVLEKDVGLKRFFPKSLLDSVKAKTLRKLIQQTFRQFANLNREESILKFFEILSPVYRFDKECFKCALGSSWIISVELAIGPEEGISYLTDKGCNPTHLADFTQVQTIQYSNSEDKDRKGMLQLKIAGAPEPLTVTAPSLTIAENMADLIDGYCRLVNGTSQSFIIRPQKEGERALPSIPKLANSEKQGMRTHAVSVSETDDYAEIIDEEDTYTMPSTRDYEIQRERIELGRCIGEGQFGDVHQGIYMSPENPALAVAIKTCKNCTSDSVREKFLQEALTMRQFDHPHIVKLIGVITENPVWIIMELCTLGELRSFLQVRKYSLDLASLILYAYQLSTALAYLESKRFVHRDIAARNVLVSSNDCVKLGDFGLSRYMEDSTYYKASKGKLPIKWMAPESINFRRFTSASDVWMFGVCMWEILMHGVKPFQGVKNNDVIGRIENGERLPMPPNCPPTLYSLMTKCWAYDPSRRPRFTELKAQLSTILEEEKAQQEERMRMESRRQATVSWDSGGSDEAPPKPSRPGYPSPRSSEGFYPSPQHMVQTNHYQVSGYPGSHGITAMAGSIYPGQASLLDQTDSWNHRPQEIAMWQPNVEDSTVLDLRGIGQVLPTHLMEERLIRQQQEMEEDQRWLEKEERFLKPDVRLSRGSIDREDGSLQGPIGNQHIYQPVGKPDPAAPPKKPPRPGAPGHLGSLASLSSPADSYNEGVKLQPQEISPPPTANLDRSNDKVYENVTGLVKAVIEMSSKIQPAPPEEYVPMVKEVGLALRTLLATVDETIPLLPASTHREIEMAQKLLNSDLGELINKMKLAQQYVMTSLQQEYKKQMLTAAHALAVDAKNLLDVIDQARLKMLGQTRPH
Assay: PTK2 protein binding on printed compound slides – biochemical, small-molecule microarray, 635/667 nm fluorescence, BSA, DTT, primary screen (AID 1130);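 note: composite of spot emission at 667 nm and signal to noise over triplicate slides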
Details: 635 nm fluorescence, higher = more signal
Class (by composite z-score) -- bottom range: < -0.2; center range: ≥ -0.2 and < 0.2; top range: ≥ 0.2

Compound	Experimental target	Label
COc1ccc([Si](C)(C)[C@H]2[C@H](CC(=O)N3Cc4ccccc4C[C@H]3CO)O[C@@]3(C(=O)N(Cc4cccc(I)c4)c4ccccc43)[C@@H]2C)cc1	Focal adhesion kinase 1 (Homo sapiens) (UniProt Q05397)	bottom range
CC(C)N1C(=O)c2ccccc2[C@](C)(C(=O)NC2CC2)[C@@H]1c1ccc(CO)cc1	Focal adhesion kinase 1 (Homo sapiens) (UniProt Q05397)	center range
CN1C(=O)C2C=CC(C(O)c3ccccc3)N(NC(=O)OC(C)(C)C)C2C1=O (centres undefined)	Focal adhesion kinase 1 (Homo sapiens) (UniProt Q05397)	center range
COC(=O)c1c2oc(c1C(=O)OC)C(=O)N[C@H](Cc1ccccc1)Cn1nncc1C1(CCCCC1)NC(=O)N[C@H](CO)CC2	Focal adhesion kinase 1 (Homo sapiens) (UniProt Q05397)	center range
CC(C)(C)OC(=O)CC[C@@]1(C(N)=O)N=C(c2ccc(OCCCO)cc2)O[C@@H]1c1ccccc1N=[N+]=[N-]	Focal adhesion kinase 1 (Homo sapiens) (UniProt Q05397)	top range
COC(=O)[C@@]1(Cc2ccc(OC)cc2)[C@H]2c3cc(C(=O)N(C)C)n(CCSCCO)c3C[C@H]2CN1C(=O)c1ccccc1	Focal adhesion kinase 1 (Homo sapiens) (UniProt Q05397)	top range
CCOC(=O)C[C@H]1[C@H](OC(=O)c2ccc(C(=O)c3ccccc3)cc2)[C@@H](NC(=O)c2ccc3ccccc3n2)c2cc(OCCCO)ccc2N1C(=O)c1ccc2ccccc2n1	Focal adhesion kinase 1 (Homo sapiens) (UniProt Q05397)	center range
NC(=O)[C@@]1(CCS(=O)(=O)c2ccccc2)N=C(c2ccc(OCCCO)cc2)O[C@H]1c1ccccc1	Focal adhesion kinase 1 (Homo sapiens) (UniProt Q05397)	top range
Cc1ccc(N2C(=O)c3ccccc3[C@@H](C(=O)NC(C)C)[C@@H]2c2ccc(CO)cc2)nc1	Focal adhesion kinase 1 (Homo sapiens) (UniProt Q05397)	bottom range
Cc1ccc(S[C@]2(C(=O)NCc3ccccc3)CC(=O)N(Cc3cc(C(F)(F)F)cc(C(F)(F)F)c3)[C@@H]2c2ccc(CO)cc2)cc1	Focal adhesion kinase 1 (Homo sapiens) (UniProt Q05397)	center range
COc1cc(CO)cc(I)c1O[C@H]1C=C(C(=O)NCCO)C[C@@H](N(CCc2cccc(F)c2)C(=O)CCC2CCCC2)[C@@H]1O	Focal adhesion kinase 1 (Homo sapiens) (UniProt Q05397)	top range
COCCOC(=O)N1C(=O)[C@@]2(c3cc(C#Cc4ccc(OC)cc4)ccc31)[C@H](c1ccc(OCCO)cc1)N1[C@H](c3ccccc3)[C@H](c3ccccc3)OC(=O)[C@H]1[C@@H]2C(=O)N1CCc2cc(OC)c(OC)cc2C1	Focal adhesion kinase 1 (Homo sapiens) (UniProt Q05397)	top range
